test system: normal NK cells expanded with K562-aAPC; assay: drug sensitivity score (DSS) (DSS units); higher = more sensitive; extreme values may be limits of the assay; settings: 72 h; IL-2 2.5 ng/mL

Compound	drug sensitivity score
CCc1nc(-c2cccc(C)c2)c(-c2ccnc(NC(=O)c3ccccc3)c2)s1 [TAK-715] (max concentration tested 10000 nM)	0
CCOC(=O)CCNc1cc(N2CCc3ccccc3CC2)nc(-c2ccccn2)n1 [GSK-J4] (max concentration tested 100000 nM)	16.9
CC1=C(/C=C/C(C)=C/C=C/C(C)=C/C(=O)O)C(C)(C)CCC1 [Tretinoin] (max concentration tested 10000 nM)	0
Cc1cc(Nc2cc(CN3CCOCC3)c3nc(C)c(Cc4ccc(Cl)cc4F)n3n2)n[nH]1 [Gandotinib] (max concentration tested 10000 nM)	20
CCN1CCN(c2ccc(Nc3cc(N(C)C(=O)Nc4c(Cl)c(OC)cc(OC)c4Cl)ncn3)cc2)CC1 [NVP-BGJ398] (max concentration tested 1000 nM)	0
CCOc1cc2ncc(C#N)c(Nc3ccc(OCc4ccccn4)c(Cl)c3)c2cc1NC(=O)/C=C/CN(C)C [Neratinib] (max concentration tested 1000 nM)	4.02
Cn1cc(C2=Nc3cc(NC(=O)C(N)C4CCCCC4)cc4c3C2=CNNC4=O)cn1 (stereo unspecified) (max concentration tested 10000 nM)	11.4
CS(=O)(=O)CCNCc1ccc(-c2ccc3ncnc(Nc4ccc(OCc5cccc(F)c5)c(Cl)c4)c3c2)o1 [Lapatinib] (max concentration tested 1000 nM)	0
CC(C)C[C@@H](C(=O)N[C@H](C(=O)OC1CCCC1)c1ccccc1)[C@H](O)C(=O)NO [Tosedostat] (max concentration tested 10000 nM)	2.81
COc1cc(Nc2ncc3c(n2)-c2ccc(Cl)cc2C(c2c(F)cccc2OC)=NC3)ccc1C(=O)O [Alisertib] (max concentration tested 10000 nM)	16.4
C=CC[C@@H]1/C=C(\C)C[C@H](C)C[C@H](OC)[C@H]2O[C@@](O)(C(=O)C(=O)N3CCCC[C@H]3C(=O)O[C@H](/C(C)=C/[C@@H]3CC[C@@H](O)[C@H](OC)C3)[C@H](C)[C@@H](O)CC1=O)[C@H](C)C[C@@H]2OC [Tacrolimus] (max concentration tested 10000 nM)	0
Nc1ncnc2c1nc(N)n2[C@@H]1O[C@H](CO)[C@@H](O)[C@H]1O [8-amino-adenosine] (max concentration tested 50000 nM)	22.2
CN(C)C(=O)c1cc2cnc(Nc3ccc(N4CCNCC4)cn3)nc2n1C1CCCC1 [Ribociclib] (max concentration tested 10000 nM)	3.05
CO[C@H]1C[C@@H]2CC[C@@H](C)[C@@](O)(O2)C(=O)C(=O)N2CCCC[C@H]2C(=O)O[C@H]([C@H](C)C[C@@H]2CC[C@@H](OC(=O)C(C)(CO)CO)[C@H](OC)C2)CC(=O)[C@H](C)/C=C(\C)[C@@H](O)[C@@H](OC)C(=O)[C@H](C)C[C@H](C)/C=C/C=C/C=C/1C [Temsirolimus] (max concentration tested 100 nM)	1.25
CN(c1ccccc1CNc1nc(Nc2ccc3c(c2)CC(=O)N3)ncc1C(F)(F)F)S(C)(=O)=O (max concentration tested 10000 nM)	12.4
CC(C)Oc1ccc(C(=O)N[C@H](CNC(=O)CN(C)C)Cc2ccc(-c3cn4cccc([C@H](C)O)c4n3)cc2)cc1Cl (max concentration tested 10000 nM)	13.2
CCn1c(-c2nonc2N)nc2cnc(Oc3cccc(NC(=O)c4ccc(OCCN5CCOCC5)cc4)c3)cc21 (max concentration tested 10000 nM)	3.71
COC(=O)C[C@](O)(CCCC(C)(C)O)C(=O)O[C@@H]1C(OC)=C[C@]23CCCN2CCc2cc4c(cc2[C@H]13)OCO4 [Omacetaxine] (max concentration tested 10000 nM)	31.6
O=C(/C=C/c1cccnc1)NCCCCC1CCN(C(=O)c2ccccc2)CC1 [Daporinad] (max concentration tested 1000 nM)	29.2
CN1CCN(c2cc(C(=O)Nc3ccc4c(c3)-c3c(c(C(N)=O)nn3-c3ccc(F)cc3)CC4)c(Cl)cn2)CC1 [PHA 408] (max concentration tested 10000 nM)	8.3
O=C(/C=C\n1cnc(-c2cc(C(F)(F)F)cc(C(F)(F)F)c2)n1)NNc1cnccn1 [Selinexor] (max concentration tested 10000 nM)	25.9

Provenance of the data: the supplement of paper PMC5908809
